Test system: SARS-CoV-2
Test Summary: microbe, parasite or virus in culture
Assay type: cell-based
Reported Conditions: Severe acute respiratory syndrome coronavirus 2, Table 3; read-out: SARS-CoV-2 EC50
Outcome Measure: EC50 (µM)
Express your answer in µM, writing the number without its unit.

Chemical String: CCCCCCCCCCCCCCCCOC[C@H](COP(=O)(O)OC[C@H]1O[C@@](C#N)(c2ccc3c(N)ncnn23)[C@H](O)[C@@H]1O)OCc1cc(F)cc(C#N)c1
Measurement Units: µM
EC50: 0.13

Now consider a different molecule.
Give EC50; test system SARS-CoV-2; molecule `CCCCCCCC/C=C\CCCCCCCCOC[C@H](COP(=O)(O)OC[C@H]1O[C@@](C#N)(c2ccc3c(N)ncnn23)[C@H](O)[C@@H]1O)OCc1cc(F)cc(C#N)c1`
0.15
